Task for the reader: assign each of the following molecules its reported GI50.
# Test system: MDA-MB-435
# EXPERIMENTAL PROTOCOL: NCI tumour cell line growth inhibition, 48 h
Calls of active or inactive are those of the source. Rule as the data show it: active = GI50 up to about 1.1 µM and inactive = higher.

[
  {
    "MOLECULE": "CN(N)C(=O)NCCCl",
    "GI50": "> 100 µM (inactive)"
  },
  {
    "MOLECULE": "O=c1c2ccccc2n2c(-c3ccccc3O)nnc2n1-c1ccccc1",
    "GI50": "> 100 µM (inactive)"
  }
]

Here are 4 molecules. What values of GI50 were reported for them?
1. COc1ccc(/C=N/NC(=O)C2=C(N)N(c3ccccc3)C(=C(C#N)C#N)S2)cc1
2. COC(=O)C(=O)C(C(=O)C(N)=O)c1nc2ccc(C(=O)c3ccccc3)cc2nc1O (stereo unspecified)
3. C=C(C)[C@@H](O)[C@H](O)C[C@H](C)C1CC[C@]2(C)C1=CC[C@@H]1[C@@]3(C)CC[C@@H](OC(C)=O)C(C)(C)[C@@H]3C[C@@H](OC3OC(COC(C)=O)C(O)C(O)C3O)[C@]12C (stereo partly specified)
4. Cc1ccc(C(=O)C(Cl)C(Cl)c2ccc(C)cc2)cc1 (stereo unspecified)

Response:
1. > 100 µM (inactive)
2. 65 µM (inactive)
3. 2 µM (inactive)
4. 2.97 µM (inactive)

====

# Test system: IGROV-1
# EXPERIMENTAL PROTOCOL: NCI tumour cell line growth inhibition, 48 h
Activity calls are given as the source filed them. Rule as the data show it: active = GI50 up to about 1.1 µM and inactive = higher.
EXPERIMENTAL ENDPOINT: GI50

Answered examples (6):
[
  {
    "COMPOUND": "CC1=CC2CCC1(C)C/C2=C(/C)OC=O (stereo not given)",
    "SYSTEM NAME": "IGROV-1",
    "GI50": "> 100 µM (inactive)"
  },
  {
    "COMPOUND": "COC(=O)CC1NC(=O)C1C(C)(OC)OC (stereo not given)",
    "SYSTEM NAME": "IGROV-1",
    "GI50": "> 100 µM (inactive)"
  },
  {
    "COMPOUND": "COC(=O)C(/C(=N/NC(N)=O)C(=O)Nc1ccc(C)cc1)c1nc2ccc([N+](=O)[O-])cc2nc1O (stereo not given)",
    "SYSTEM NAME": "IGROV-1",
    "GI50": "> 100 µM (inactive)"
  },
  {
    "COMPOUND": "COC(=O)c1cc(C#Cc2cc(OC)ccc2OC)ccc1OC",
    "SYSTEM NAME": "IGROV-1",
    "GI50": "53.2 µM (inactive)"
  },
  {
    "COMPOUND": "CC(C)(C)NC(NC(C)(C)C)=C(/C=C(/Cl)[N+](=O)[O-])[N+](=O)[O-]",
    "SYSTEM NAME": "IGROV-1",
    "GI50": "51.8 µM (inactive)"
  },
  {
    "COMPOUND": "CN(C(=O)c1ccccc1)c1ccc2c(c1)C(=O)c1ccccc1C2=O",
    "SYSTEM NAME": "IGROV-1",
    "GI50": "> 100 µM (inactive)"
  }
]

Here are 3 compounds. What values of GI50 were reported for them?
1. CC(=O)C(CN1CCOCC1)C(c1ccccc1)c1c(O)c2ccccc2oc1=O (stereo not given)
2. CCCC(=O)Nc1cc([N+](=O)[O-])c([N+](=O)[O-])cc1OC
3. CCOC(=O)C1=C(OC(OCC)C(CC)[Se]c2ccccc2)CCCC1 (stereo not given)

Response:
1. > 100 µM (inactive)
2. 20.9 µM (inactive)
3. 26.8 µM (inactive)

Here are 6 compounds. What values of GI50 were reported for them?
1. O=c1ccc2nc3ccc(O)cc3oc-2c1
2. NC(=O)CN1C=CCC(C(N)=O)=C1 [CARICOTAMIDE]
3. CC(C)(C)C(=O)C(C(=O)C(C)(C)C)C(=O)C(C)(C)C
4. CC(C)C(=S)N(C)O
5. CC(=O)c1c(SCCN2CCCC2)n(-c2ccccc2)c(=S)n(-c2ccccc2)c1=O
6. C1=CC=C2NCCC/N=C3/C=CC=CC=C3NCCC/N=C\2C=C1

Response:
1. 39.5 µM (inactive)
2. > 100 µM (inactive)
3. > 100 µM (inactive)
4. > 62.5 µM (inactive)
5. 7.03 µM (inactive)
6. > 100 µM (inactive)

====

# Tested on: SNB-75
# EXPERIMENTAL PROTOCOL: NCI tumour cell line growth inhibition, 48 h
Activity calls are given as the source filed them. Rule as the data show it: active = GI50 up to about 1.1 µM and inactive = higher.
Response enum: active, inactive

Worked examples, 5 compounds total:
[
  {
    "COMPOUND": "CCOC(=O)CN1C(=O)c2cccc3cc([N+](=O)[O-])cc(c23)C1=O",
    "CLASSIFICATION": "inactive"
  },
  {
    "COMPOUND": "CCOC(=O)c1c(SCCN2CCCCC2)n(-c2ccccc2)c(=S)n(-c2ccccc2)c1=O",
    "CLASSIFICATION": "inactive"
  },
  {
    "COMPOUND": "COc1ccc(/C(C)=N/OC(=O)c2c(-c3ccccc3Cl)noc2C)cc1CN1CCOCC1",
    "CLASSIFICATION": "inactive"
  },
  {
    "COMPOUND": "COC(=O)C(/C(=N/NC(N)=O)C(=O)Nc1ccc(C)cc1)c1nc2ccc([N+](=O)[O-])cc2nc1O (stereo not given)",
    "CLASSIFICATION": "inactive"
  },
  {
    "COMPOUND": "Cc1ccc(S(=O)(=O)OCCn2cnc3nc(NC(=O)c4ccccc4)[nH]c(=O)c32)cc1",
    "CLASSIFICATION": "inactive"
  }
]

Query: What is the recorded call for this compound in the test? CC(C)(C)C(=O)ON1N=NC2C3CC(OCc4ccccc4)(OCc4ccccc4)C(O3)C21 (stereo not given)
Response: inactive

Query: What is the recorded call for this compound in the test? N#C[C@H](c1nc2ccccc2s1)c1nc2ccccc2nc1Cl
Response: inactive

Query: What is the recorded call for this compound in the test? CC1CCC(=O)C(C(=O)CC2CC(=O)N(C)C(=O)C2)C1 (stereo not given)
Response: inactive

Query: What is the recorded call for this compound in the test? C1=CC=C2NCCC/N=C3/C=CC=CC=C3NCCC/N=C\2C=C1
Response: inactive

Query: What is the recorded call for this compound in the test? CN(C)CCNC(=O)c1cccc2nc3c4ccccc4c4ccccc4c3nc12
Response: inactive

Query: What is the recorded call for this compound in the test? O=C(CC(C(=O)c1cccs1)c1ccsc1)c1cccs1 (stereo not given)
Response: inactive

Query: What is the recorded call for this compound in the test? Cc1cc2c(=O)cc(-c3ccc(Cl)cc3Cl)oc2c(C(=O)O)c1C
Response: inactive

Query: What is the recorded call for this compound in the test? CC12CC3OC(=O)C1COC14OC5(C2C1=O)C(O)(CCC1C4CC2OC24CC=CC(=O)C14C)C(=O)OC35C (stereo not given)
Response: inactive

Query: What is the recorded call for this compound in the test? CC1(C)[C@@H]2C[C@H]1C(Cc1ccc(C[C@H]3c4cc(-c5ccccn5)ncc4[C@H]4C[C@@H]3C4(C)C)cc1)c1cc(-c3ccccn3)ncc12 (stereo not given in full)
Response: inactive

Query: What is the recorded call for this compound in the test? C=C1C(=O)OC2C3C(=C)[C@@H](OC(C)=O)CC3C(C)=CC(OC(=O)C(C)(O)C(C)OC(C)=O)[C@@H]12 (stereo not given in full)
Response: inactive

Query: What is the recorded call for this compound in the test? C/C(=N\NC(N)=S)c1sc(-n2nc(-c3ccccc3)cc2-c2ccccc2)nc1C
Response: inactive

Query: What is the recorded call for this compound in the test? O=C(Cc1ccccc1)NNc1nc(NNC(=O)c2ccncc2)nc(Nc2cccc(Cl)c2)n1
Response: inactive

Query: What is the recorded call for this compound in the test? COc1cccc(-c2cc(O)c3cc(N)ccc3n2)c1
Response: inactive

Query: What is the recorded call for this compound in the test? CCOC(OC1=CCCC1)C(C)[Se]c1ccccc1 (stereo not given)
Response: inactive

Query: What is the recorded call for this compound in the test? CC(C)CC1NC(=O)CCC(NC(=O)C(Cc2ccc(O)cc2)NC(=O)OCc2ccccc2)C(=O)NC(Cc2ccccc2)C(=O)NC(Cc2ccccc2)NC1=O (stereo not given)
Response: inactive

Query: What is the recorded call for this compound in the test? CSc1nc2c(ncn2C2OCC(O)C(O)C2O)c(=O)[nH]1 (stereo not given)
Response: inactive

====

# System: DMS-273
# EXPERIMENTAL PROTOCOL: NCI tumour cell line growth inhibition, 48 h
The source made the active and inactive calls. Rule as the data show it: active = GI50 up to about 1.1 µM and inactive = higher.
Response enum: TRUE = active, FALSE = inactive

Worked examples, 6 compounds total:
[
  {
    "COMPOUND": "COC1OC2COC(c3ccccc3)OC2C(O)C1Br (centres undefined)",
    "CLASSIFICATION": "FALSE"
  },
  {
    "COMPOUND": "NC(=O)N/N=C(\\CC1OC(=O)c2ccccc21)c1ccc([N+](=O)[O-])cc1 (centres undefined)",
    "CLASSIFICATION": "FALSE"
  },
  {
    "COMPOUND": "CCOC(=O)NC(=O)c1cn(CCCCCCCCCCC(=O)N2CCN(CCn3cc(C(=O)NC(=O)OCC)c(=O)[nH]c3=O)CC2)c(=O)[nH]c1=O",
    "CLASSIFICATION": "FALSE"
  },
  {
    "COMPOUND": "COC(=O)[C@@H]1C(=O)O[C@@H](c2ccc(OC)c(OC)c2OC)[C@@H]1C(=O)OC.COC(=O)[C@H]1C(=O)O[C@@H](c2ccc(OC)c(OC)c2OC)[C@@H]1C(=O)OC",
    "CLASSIFICATION": "FALSE"
  },
  {
    "COMPOUND": "O=S(=O)(O)C(F)(F)C(F)(F)C(F)(F)C(F)(F)F",
    "CLASSIFICATION": "FALSE"
  },
  {
    "COMPOUND": "O=C(Nc1cccc(Cl)c1)C(=O)C(C(=O)c1ccc2ccccc2c1)C1OC(=O)c2ccccc21 (centres undefined)",
    "CLASSIFICATION": "FALSE"
  }
]

Query: What is the recorded call for this compound in the test? Cc1ccc2[nH]c3c(C)c4ccncc4c(C)c3c2c1
Response: TRUE

Query: What is the recorded call for this compound in the test? CC(=O)O/N=C/c1ncccc1OC(C)=O
Response: FALSE

Query: What is the recorded call for this compound in the test? CN1N=C2c3ccccc3CC[C@H]2C1c1cccc(O)c1 (some centres undefined)
Response: FALSE
